- tgt: T1, soluble FGFR1c receptor protein (human, UniProt P11362 141-376)
- T1 sequence: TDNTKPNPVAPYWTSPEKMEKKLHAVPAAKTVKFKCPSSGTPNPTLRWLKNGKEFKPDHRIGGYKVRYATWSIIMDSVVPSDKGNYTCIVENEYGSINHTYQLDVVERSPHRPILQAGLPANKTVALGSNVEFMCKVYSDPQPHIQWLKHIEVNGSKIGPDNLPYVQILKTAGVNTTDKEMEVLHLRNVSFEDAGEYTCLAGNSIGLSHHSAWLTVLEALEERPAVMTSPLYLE
- assay: BLI Octet RED96, antibody on anti-hIgG Fc tip
Each entry below carries its recorded koff.
Value expressed in s⁻¹; do not type the unit.

The following binders have reported results that may help.
binder	observed value
Vk9 combined with the VH of Ab15 (antibody, V domains shown, captured on anti-human IgG Fc tips) VH: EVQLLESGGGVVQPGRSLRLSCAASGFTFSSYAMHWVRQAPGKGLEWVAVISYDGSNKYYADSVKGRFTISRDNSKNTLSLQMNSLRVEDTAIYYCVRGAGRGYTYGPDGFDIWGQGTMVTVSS VL: DIVMTQSPDSLAVSLGERATINCKSSQSLLHSDGKTYVYWYQQKPGQPPKLLIYELSNRFSGVPDRFSGSGSGTDFTLTISSLQAEDVAVYYCMQYIEAPLTFGGGTKVEIK	0.000137
Ab92 (antibody, human IgG2, kappa, V domains shown, format in the assays not spelled out) VH: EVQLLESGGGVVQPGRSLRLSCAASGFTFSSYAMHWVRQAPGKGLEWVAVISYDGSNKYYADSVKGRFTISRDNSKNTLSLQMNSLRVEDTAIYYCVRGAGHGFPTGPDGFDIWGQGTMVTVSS VL: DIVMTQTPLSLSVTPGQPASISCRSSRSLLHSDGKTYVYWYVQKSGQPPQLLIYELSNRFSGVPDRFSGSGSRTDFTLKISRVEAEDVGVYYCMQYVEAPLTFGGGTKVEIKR	0.00129

Next up:
Could you share which koff value was measured for Vh1 combined with the VL of Ab15 (antibody, V domains shown, captured on anti-human IgG Fc tips) VH: EVQLVESGGGVVQPGRSLRLSCAASGFTFSSYAMHWVRQAPGKGLEWVAVISYDGSNKYYADSVKGRFTISRDNSKNTLYLQMNSLRAEDTAIYYCVRGAGRGYTYGPDGFDIWGQGTMVTVSS VL: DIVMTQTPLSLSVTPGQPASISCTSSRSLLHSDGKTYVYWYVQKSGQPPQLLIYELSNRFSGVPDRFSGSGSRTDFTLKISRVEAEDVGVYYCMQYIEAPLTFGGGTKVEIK ?
0.000356

The origin of these recorded values is patent US20180244785A1.
